Measured pIC50 by item
- System: D1 cells
- measurement-protocol: Cytotoxicity MTT assay on D1 cells
- Format: cell-based, rat
- condition: Rattus norvegicus, 72 h, MTT, 3 days
// field semantics: pIC50 = negative decimal log of concentration (mol/L)

Q: Return value of pIC50 for input CCC(C)(C)C(=O)O[C@H]1C[C@@H](C)C=C2C=C[C@H](C)[C@H](CC[C@@H](O)C[C@@H](O)CC(=O)O)[C@H]21 [Compound 4, simvastatin acid, reference compound] , no commentary.
A: 4.53

Q: Return value of pIC50 for input CCC(C)(C)C(=O)O[C@H]1C[C@@H](C)C=C2C=C[C@H](C)[C@H](CC[C@@H](O)C[C@@H](O)CC(=O)NCCOCCO)[C@H]21 [Compound 7] , no commentary.
A: 3.57

Q: Return value of pIC50 for input C=CCNC(=O)C[C@H](O)C[C@H](O)CC[C@@H]1[C@@H]2C(=C[C@H](C)C[C@@H]2OC(=O)C(C)(C)CC)C=C[C@@H]1C [Compound 10] , no commentary.
A: 4.04

Q: Return value of pIC50 for input CCC(C)(C)C(=O)O[C@H]1C[C@@H](C)C=C2C=C[C@H](C)[C@H](CC[C@@H](O)C[C@@H](O)CC(=O)NCCCO)[C@H]21 [Compound 6] , no commentary.
A: 3.79

Q: Return value of pIC50 for input CCC(C)(C)C(=O)O[C@H]1C[C@@H](C)C=C2C=C[C@H](C)[C@H](CC[C@@H](O)C[C@@H](O)CC(=O)NCc3ccccn3)[C@H]21 [Compound 9] , no commentary.
A: 4.01

Q: Return value of pIC50 for input CCCNC(=O)C[C@H](O)C[C@H](O)CC[C@@H]1[C@@H]2C(=C[C@H](C)C[C@@H]2OC(=O)C(C)(C)CC)C=C[C@@H]1C [Compound 11] , no commentary.
A: 4.03

Q: Return value of pIC50 for input CCC(C)(C)C(=O)O[C@H]1C[C@@H](C)C=C2C=C[C@H](C)[C@H](CC[C@@H](O)C[C@@H](O)CC(=O)NN)[C@H]21 [Compound 8] , no commentary.
A: 3.98

Q: Return value of pIC50 for input CCC(C)(C)C(=O)O[C@H]1C[C@@H](C)C=C2C=C[C@H](C)[C@H](CC[C@@H](O)C[C@@H](O)CC(=O)NCCO)[C@H]21 [Compound 5] , no commentary.
A: 3.93

Q: Return value of pIC50 for input CCC(C)(C)C(=O)O[C@H]1C[C@@H](C)C=C2C=C[C@H](C)[C@H](CC[C@@H]3C[C@@H](O)CC(=O)O3)[C@H]21 [Simvastatin, reference compound] , no commentary.
A: 5.49
